Data provenance is ChEMBL document CHEMBL3112582.

experimental.protocol: AUC (infinity) in CD-1 mouse at 6.81 mg/kg, po
Type: ADME, organism-based
Parameters: time infinity, dose 6.81 mg/kg, route oral
test.parameters: plasma
measured.attribute: AUC(0-inf) (ng·h/mL)

| compound | val |
| --- | --- |
| COc1ncc(-c2cc3c(C)nc(N)cc3n([C@H]3CC[C@H](OCCO)CC3)c2=O)cc1NS(=O)(=O)c1ccc(F)cc1F | 3440 |
